# Tested on: polypeptide (SEQ ID NO: 2) ω3 desaturase
# experimental_details: conversion of added ω6 unsaturated fatty acids to ω3 unsaturated fatty acids by yeast transformant expressing the cDNA (SEQ ID NO: 1)
# Type: cell-based, Pythium folliculosum
# measurement_parameters: Saccharomyces cerevisiae InvSc1 transformant, substrate added to medium, 28° C., two days; [product amount/(substrate amount + product amount)] × 100
test_readout: Conversion rate (%)
Give the value, in units of %, as a plain number.

Some molecules with recorded Conversion rate (%):
[
  {
    "molecule": "CCCCC/C=C\\C/C=C\\C/C=C\\CCCCCCC(=O)O [DGLA, dihomo-γ-linolenic acid]",
    "units_text": "%",
    "Conversion rate (%)": 6.90
  },
  {
    "molecule": "CCCCC/C=C\\C/C=C\\C/C=C\\CCCCC(=O)O [GLA, γ-linolenic acid]",
    "units_text": "%",
    "Conversion rate (%)": 8.36
  },
  {
    "molecule": "CCCCC/C=C\\C/C=C\\C/C=C\\C/C=C\\CCCC(=O)O [AA, arachidonic acid]",
    "units_text": "%",
    "Conversion rate (%)": 7.86
  }
]

Would you kindly look at the next entry?
Query: Please give the documented Conversion rate (%) of CCCCC/C=C\C/C=C\CCCCCCCC(=O)O [LA, linoleic acid]
Response: 3.03
